- Tested on: Homo sapiens
- protocol: Pharmacokinetic parameters for Trandolapril or its active metabolite of Trandolaprilat, after oral or intravenous (IV) administration of Trandolapril.
- reported conditions: in vivo, po
quantity: CL renal

Recall the recorded CL renal for CCOC(=O)[C@H](CCc1ccccc1)N[C@@H](C)C(=O)N1[C@H](C(=O)O)C[C@H]2CCCC[C@@H]21 with Homo sapiens and state it.
1 to 4 L/h
